- Tested on: A498 renal
- RUN DESCRIPTION: NCI-60 one-dose screen, 48 h (100 = growth as untreated, 0 = no growth, -100 = all killed)
- CONDITIONS USED: 10 µM unless noted
This is part of a sample that, as a whole, favours compounds with a hit. Of some 83,000 tested, about 20% had one in any assay.
PROPERTY MEASURED: growth (%)
Answer format: numeric, % implied, no suffix.

Some solved cases for reference:
{"columns": ["COMPOUND", "RECORDED NUMBER"],
 "data": [
  ["O=C1OCC2=C1C(c1cccc([N+](=O)[O-])c1)c1cc3c(cc1N2CCO)CCC3 (stereo not drawn)", -5.04],
  ["CCCCCCCCN(CCCCCCCC)CC(O)c1cc(Cl)ccc1OC (stereo not drawn)", 54.8]
]}

Here is the next item to consider.
**Q:** Tell us which growth value is on record for Cc1cnc(C(=O)NNc2nc3sc4c(c3c(=O)[nH]2)C(C)CCC4)cn1 (stereo not drawn)
**A:** 33.9

* * *

- Test system: U251 CNS
- RUN DESCRIPTION: NCI-60 one-dose screen, 48 h
- CONDITIONS USED: 10 µM unless noted
Compounds without any hit were thinned out: in the full panel of roughly 83,000, 20% have a hit. Activity calls are given as the source filed them. How the source made its calls: active means growth percent below 10; inactive means the rest.
Thanks in advance; please answer with one of these: active, inactive

Consider the worked cases shown below.
{"columns": ["MOLECULE", "TARGET ENTITY", "CATEGORY"],
 "data": [
  ["CCOc1nc(-c2ccccc2)cc2c(O)c(C(=O)N/N=C/c3ccc(N(C)C)cc3)[nH]c(=O)c12", "U251 CNS", "inactive"],
  ["COc1ccc(-c2nc(Cl)c3c(C)nn(-c4ccc(F)cc4)c3n2)cc1", "U251 CNS", "inactive"]
]}

**Q:** Record request — test call for COC1=CC(=O)C(OC)=C(O)C1=O
**A:** inactive

**Q:** Record request — test call for CCCCCO/N=C\c1c2c(O)c3c(O)c(C)c4c(c3c1O)C(=O)C(C)(O/C=C\C(OC)C(C)C(OC(C)=O)C(C)C(O)C(C)C(O)C(C)/C=C\C=C(\C)C(=O)N2)O4 (stereo unspecified)
**A:** inactive

**Q:** Record request — test call for O=C(CC1(O)C(=O)Nc2ccc(Br)cc21)c1ccc(Cl)cc1 (stereo unspecified)
**A:** inactive

**Q:** Record request — test call for CC(C)(C)CC(N)=O
**A:** inactive

**Q:** Record request — test call for Nc1nc2ccccc2c2c(=O)c3ccc(Cl)cc3sc12
**A:** inactive

**Q:** Record request — test call for CCOC(=O)c1c(-c2ccc(OC)cc2)c(C#N)c2c(C#N)c(N)nn2c1N
**A:** inactive

**Q:** Record request — test call for O=C(NNC(=S)Nc1ccccc1)c1ccncc1
**A:** inactive

**Q:** Record request — test call for COc1ccc2c(c1)c(C(=O)c1nc(-c3cn(C)c4ccccc34)no1)cn2C
**A:** inactive

**Q:** Record request — test call for Cc1cc(N2CCN(CC(=O)Nc3ccc4c(ccn4Cc4ccccc4)c3)CC2)nc(N2CCCCCC2)n1
**A:** inactive

**Q:** Record request — test call for COc1ccc2c(c1)CCNC21C(=O)Nc2c(Br)cc(Br)cc21 (stereo unspecified)
**A:** inactive

**Q:** Record request — test call for COCCn1cc(-c2csc(-c3cn(C)c4ccc(F)cc34)n2)c2cccnc21
**A:** inactive

**Q:** Record request — test call for CCOC(=O)c1cc2c(n1Cc1cc(OC)cc(OC)c1Br)-c1nc(NC(C)=O)sc1CCC2
**A:** inactive

**Q:** Record request — test call for Nc1ccc(/C=N/Nc2ccnc3c(N)cccc23)c2cccnc12
**A:** active

**Q:** Record request — test call for O=C1N=c2ccccc2=C1c1sc(=S)n(C2CC(=O)N(c3ccc(Cl)cc3)C2=O)c1O (stereo unspecified)
**A:** inactive

**Q:** Record request — test call for COCCn1cc(-c2nc(-c3cn(CCOC)c4ncccc34)cs2)c2ccccc21
**A:** inactive

**Q:** Record request — test call for NC1=CC(=O)c2cccnc2C1=O
**A:** active

**Q:** Record request — test call for COc1cc(NS(=O)(=O)C(C)C)cc(-c2cc(-c3ccc(N4CCNCC4)cc3)cnc2N)c1
**A:** inactive

**Q:** Record request — test call for O=C(Oc1ccc(CO[N+](=O)[O-])cc1)c1ccccc1
**A:** active

**Q:** Record request — test call for COc1ccc2c(c1)CC[C@@H]1[C@@H]2CC[C@]2(C)C3C(=CCC4C(=O)N(c5ccccc5)C(=O)C43)C[C@@H]12 (stereo partly specified)
**A:** inactive
